TEST_TARGET: MusiCSP1
Construct: pET32a(+) BamHI/HindIII fusion (about 31 kDa) in E. coli BL21(DE3), Ni-NTA, His-tag fusion cut off with enterokinase
MEASUREMENT_DESCRIPTION: 1-NPN fluorescence displacement
CONDITION_INFO: 2 μM protein, 2 μM 1-NPN; ligand 2-16 μM; competitive with 1-NPN
What Ki was measured for each of the following?

Observe how each entry below is paired with its result.
# input Entry CC(C)=CCC/C(C)=C\CO : reported Ki = ?
# output 80 µM

# input Cool, now Cc1ccccc1C
# output 31 µM

# input Would you kindly repeat that for C=C1CC/C=C(\C)CC[C@@H]2[C@@H]1CC2(C)C ?
# output 121 µM

# input And COc1ccc(C=O)cc1 ?
# output 42.8 µM

# input Try CC(C)=CCCC(C)CCO (stereo not drawn) next.
# output 38.6 µM

Report Ki for each item below.
1. CCCCCC(=O)CC
2. CC(C)=CCC/C(C)=C/CO

# output
1: 59.6 µM; 2: 36.5 µM

Could I get Ki for every one of these entries?
1. O=CCCc1ccccc1
2. Cc1occc(=O)c1O [3-hydroxy-2-Methyl-4-pvrone]

# output
["38.6 µM", "25.4 µM"]

====

TEST_TARGET: MusiCSP1
Construct: pET32a(+) BamHI/HindIII fusion (about 31 kDa) in E. coli BL21(DE3), Ni-NTA, His-tag fusion cut off with enterokinase
MEASUREMENT_DESCRIPTION: fluorescent probe titration, Scatchard
CONDITION_INFO: excitation 337 nm; labelled compound (fluorescent probe)
REPORTED_PROPERTY: pKd
Give bare numbers, as −log10 of the molar value.

# input Give the measured pKd of c1ccc(Nc2cccc3ccccc23)cc1 .
# output 5.08

// provenance: paper PMC9549282
